Task for the reader: assign each of the following proteins its reported ΔTm of eIF4E at eIF4E:h4E-T(1-68) 1:10.
Target: T1, human eIF4E1a protein (human, UniProt P06730 1-217)
T1 construct: human eukaryotic translation initiation factor 4E, isoform called eIF4E1a; Extinction coefficient used: 52,940 M^-1 cm^-1; also called heIF4E1a; eukaryotic initiation factor 4E
T1 sequence (P06730 whole entry, canonical isoform): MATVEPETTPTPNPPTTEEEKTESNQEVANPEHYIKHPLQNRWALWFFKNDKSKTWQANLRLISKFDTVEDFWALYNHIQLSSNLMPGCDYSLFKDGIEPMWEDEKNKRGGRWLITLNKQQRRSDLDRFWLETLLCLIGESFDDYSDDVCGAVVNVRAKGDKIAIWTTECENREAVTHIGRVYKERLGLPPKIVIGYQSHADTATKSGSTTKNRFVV
Test: differential scanning fluorimetry (thermal shift); non-reducing: 50 mM HEPES-KOH pH 7.2, 100 mM KCl, no TCEP; 5 µM eIF4E1a with 0-50 µM h4E-T(1-68) variant incubated without TCEP (up to 48 h, 4 or 20 °C), or SEC-purified dimers at 1:1; SYPRO Orange; shift of the Tm of eIF4E1a
Conditions: both partners purified
Bridge positions count the residues as written; N and C are the ends.
State the value with its unit after it.

Below: 3 proteins and their reported ΔTm of eIF4E at eIF4E:h4E-T(1-68) 1:10.
Protein | Quantity name | Result
human 4E-T(1-68) C50A (domain or fragment, UniProt Q9NRA8 1-68, looked up, human 4E-Transporter (4E-T), N-terminal fragment, residues 1-68; Without TCEP the samples are a mixture of monomer and disulphide-linked dimer; also called C50A mutant) MDRRSMGETESGDAFLDLKKPPASKCPHRYTKEELLDIKELPHSKQRPSALSEKYDSDGVWDPEKWHA | ΔTm of eIF4E at eIF4E:h4E-T(1-68) 1:10 | 14.5 °C
human 4E-T(1-68) C26AC50A (domain or fragment, UniProt Q9NRA8 1-68, looked up, human 4E-Transporter (4E-T), N-terminal fragment, residues 1-68; also called double cysteine mutant) MDRRSMGETESGDAFLDLKKPPASKAPHRYTKEELLDIKELPHSKQRPSALSEKYDSDGVWDPEKWHA | ΔTm of eIF4E at eIF4E:h4E-T(1-68) 1:10 | 14.5 °C
human 4E-T(1-68) C26A (domain or fragment, UniProt Q9NRA8 1-68, looked up, human 4E-Transporter (4E-T), N-terminal fragment, residues 1-68; Without TCEP the samples are a mixture of monomer and disulphide-linked dimer; also called C26A mutant; C26 mutant) MDRRSMGETESGDAFLDLKKPPASKAPHRYTKEELLDIKELPHSKQRPSCLSEKYDSDGVWDPEKWHA | ΔTm of eIF4E at eIF4E:h4E-T(1-68) 1:10 | 12.5 °C

Shifting focus to the protein that follows.
Measured ΔTm of eIF4E at eIF4E:h4E-T(1-68) 1:10, human 4E-T(1-68) wild type with the intramolecular disulphide bond Cys26-Cys50 (monomer SS) (domain or fragment, UniProt Q9NRA8 1-68, looked up, disulfide 26-50, human 4E-Transporter (4E-T), N-terminal fragment, residues 1-68; Same construct as m2, oxidised; The samples without TCEP may still hold some monomer SH and a small fraction of dimer; also called h4E-T(1-68) WT under non-reducing conditions; disulphide loop form) MDRRSMGETESGDAFLDLKKPPASKCPHRYTKEELLDIKELPHSKQRPSCLSEKYDSDGVWDPEKWHA : 9.5 °C
